Target: UniProt P00374
Sequence (P00374 1-187): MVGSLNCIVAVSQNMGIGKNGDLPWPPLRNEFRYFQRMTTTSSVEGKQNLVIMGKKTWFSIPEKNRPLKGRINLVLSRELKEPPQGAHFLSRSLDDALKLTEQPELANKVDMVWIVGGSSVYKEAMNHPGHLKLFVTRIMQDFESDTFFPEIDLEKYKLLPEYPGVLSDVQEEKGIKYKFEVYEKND
QUANTITY NAME: pIC50
Reminder that pIC50 is minus the log10 of a molar concentration.

Example cases with answers are listed next.
S=C(NCCN1CCOCC1)NN=Cc1ccc(N2CCCC2)cc1 ... 4.39
Cc1ccc(NC(=S)NN=Cc2ccc(N3CCCC3)cc2)cc1 ... 4.84
S=C(NN=Cc1ccc(N2CCCC2)cc1)Nc1ccccc1 ... 4.67
Fc1ccc(NC(=S)NN=Cc2ccc(N3CCCC3)cc2)cc1 ... 4.48
COc1ccc(NC(=S)NN=Cc2ccc(N3CCCC3)cc2)cc1 ... 4.91
S=C(NCc1ccc(Cl)cc1)NN=Cc1ccc(N2CCCC2)cc1 ... 4.56
S=C(NN=Cc1ccc(N2CCCC2)cc1)Nc1cccc(Br)c1 ... 4.66
S=C(NN=Cc1ccc(N2CCCC2)cc1)Nc1cccc(Cl)c1Cl ... 4.44

Q) If you can, please state the reported pIC50 value of S=C(NCc1ccccc1)NN=Cc1ccc(N2CCCC2)cc1 .
A) 4.32

Q) # iterate: Cc1cccc(C)c1NC(=S)NN=Cc1ccc(N2CCCC2)cc1
A) 4.82
